Target: SHP2 protein (Homo sapiens, UniProt Q06124)
Assay: Degradation activity on SHP2 protein in MIA Paca-2 cells (Western blot, DC50)
Assay type: cell-based
Parameters: endogenous in cells; host or cells: MIA Paca-2 cells
Settings: read-out: Degradation activity for differenct cell lines MIA Paca-2 (DC50)
Each entry below lists one item and its recorded DC50 value.

molecule	DC50
CC1(N)CCN(c2cnc(Sc3cccc(NC(=O)[C@H]4C[C@@H]4c4ccc(N5CCN(c6ccc(C(=O)NCc7ccc8c(c7)CN(C7CCC(=O)NC7=O)C8=O)nn6)CC5)c(F)c4)c3)cn2)CC1 (stereo partly drawn)	> 1000 nM
CC1(N)CCN(c2cnc(Sc3cccc(NC(=O)CCCCN4CCC(N5CCN(c6ccc(C(=O)NCc7ccc8c(c7)CN(C7CCC(=O)NC7=O)C8=O)nn6)CC5C(F)(F)F)C4)c3)cn2)CC1 (stereo not drawn)	< 100 nM
CC1(N)CCN(c2cnc(Sc3cccc(NC(=O)CCCCCCCCN4CCN(c5ncc(C(=O)NCc6ccc7c(c6)CN(C6CCC(=O)NC6=O)C7=O)cn5)CC4)c3)cn2)CC1 (stereo not drawn)	< 100 nM

----------
Each entry below lists one item and its recorded DC50 value.
Target: SHP2 protein (Homo sapiens)
Sequence (Q06124 1-593): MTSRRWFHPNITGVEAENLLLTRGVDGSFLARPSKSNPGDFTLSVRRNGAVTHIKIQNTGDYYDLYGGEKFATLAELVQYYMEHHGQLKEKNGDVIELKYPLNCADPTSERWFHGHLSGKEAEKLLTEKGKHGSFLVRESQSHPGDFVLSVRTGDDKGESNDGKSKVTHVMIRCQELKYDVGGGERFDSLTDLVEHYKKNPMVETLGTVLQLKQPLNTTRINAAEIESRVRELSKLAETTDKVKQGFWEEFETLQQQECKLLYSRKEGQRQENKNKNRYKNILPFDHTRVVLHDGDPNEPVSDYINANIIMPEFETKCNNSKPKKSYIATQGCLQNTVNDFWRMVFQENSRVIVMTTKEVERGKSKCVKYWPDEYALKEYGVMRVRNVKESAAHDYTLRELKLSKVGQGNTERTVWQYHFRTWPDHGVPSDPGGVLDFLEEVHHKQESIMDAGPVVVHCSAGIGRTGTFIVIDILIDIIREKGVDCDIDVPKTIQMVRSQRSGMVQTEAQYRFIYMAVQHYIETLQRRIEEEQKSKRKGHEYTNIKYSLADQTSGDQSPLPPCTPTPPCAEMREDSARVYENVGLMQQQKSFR
Experiment: Degradation activity on SHP2 protein in MV-411 cells (Western blot, DC50)
Assay type: cell-based
Set-up: endogenous in cells
Details: MV411 cells, 24 hours, read-out: Degradation activity for differenct cell lines MV411 (DC50)
measurementType: DC50

compound	assayedTarget	readoutValue
CC1(N)CCN(c2cnc(Sc3cccc(NC(=O)CCCCCCN4CC5(CCN(C(=O)/C=C/C(=O)NCc6ccc7c(c6)CN(C6CCC(=O)NC6=O)C7=O)C5)C4)c3)cn2)CC1 (stereo not shown) [Compound 117]	SHP2 protein (Homo sapiens)	> 1000 nM
Cc1ncsc1-c1ccc([C@H](C)NC(=O)[C@@H]2C[C@@H](O)CN2C(=O)[C@@H](NC(=O)[C@@H]2C[C@H]2C(=O)N2CCC3(CN(CCCCCCC(=O)Nc4cccc(Sc5cnc(N6CCC(C)(N)CC6)cn5)c4)C3)C2)C(C)(C)C)cc1 [Compound 126]	SHP2 protein (Homo sapiens)	100 to 1000 nM
Cc1ncsc1-c1ccc([C@H](C)NC(=O)[C@@H]2C[C@@H](O)CN2C(=O)[C@@H](NC(=O)CCCCCCCCN2CCN(C(=O)[C@H]3CCC[C@@H]3C(=O)Nc3cccc(Sc4cnc(N5CCC(C)(N)CC5)cn4)c3)CC2)C(C)(C)C)cc1 [Compound 28]	SHP2 protein (Homo sapiens)	< 100 nM
Cc1ncsc1-c1ccc([C@H](C)NC(=O)[C@@H]2C[C@@H](O)CN2C(=O)[C@@H](NC(=O)c2ccc(N3CCC4(CN(CCCCCCCC(=O)Nc5cccc(Sc6cnc(N7CCC(C)(N)CC7)cn6)c5)C4)C3)nn2)C(C)(C)C)cc1 [Compound 105]	SHP2 protein (Homo sapiens)	< 100 nM
